Target: Voltage-dependent T-type calcium channel subunit alpha-1H (Homo sapiens)
Sequence (O95180 whole entry): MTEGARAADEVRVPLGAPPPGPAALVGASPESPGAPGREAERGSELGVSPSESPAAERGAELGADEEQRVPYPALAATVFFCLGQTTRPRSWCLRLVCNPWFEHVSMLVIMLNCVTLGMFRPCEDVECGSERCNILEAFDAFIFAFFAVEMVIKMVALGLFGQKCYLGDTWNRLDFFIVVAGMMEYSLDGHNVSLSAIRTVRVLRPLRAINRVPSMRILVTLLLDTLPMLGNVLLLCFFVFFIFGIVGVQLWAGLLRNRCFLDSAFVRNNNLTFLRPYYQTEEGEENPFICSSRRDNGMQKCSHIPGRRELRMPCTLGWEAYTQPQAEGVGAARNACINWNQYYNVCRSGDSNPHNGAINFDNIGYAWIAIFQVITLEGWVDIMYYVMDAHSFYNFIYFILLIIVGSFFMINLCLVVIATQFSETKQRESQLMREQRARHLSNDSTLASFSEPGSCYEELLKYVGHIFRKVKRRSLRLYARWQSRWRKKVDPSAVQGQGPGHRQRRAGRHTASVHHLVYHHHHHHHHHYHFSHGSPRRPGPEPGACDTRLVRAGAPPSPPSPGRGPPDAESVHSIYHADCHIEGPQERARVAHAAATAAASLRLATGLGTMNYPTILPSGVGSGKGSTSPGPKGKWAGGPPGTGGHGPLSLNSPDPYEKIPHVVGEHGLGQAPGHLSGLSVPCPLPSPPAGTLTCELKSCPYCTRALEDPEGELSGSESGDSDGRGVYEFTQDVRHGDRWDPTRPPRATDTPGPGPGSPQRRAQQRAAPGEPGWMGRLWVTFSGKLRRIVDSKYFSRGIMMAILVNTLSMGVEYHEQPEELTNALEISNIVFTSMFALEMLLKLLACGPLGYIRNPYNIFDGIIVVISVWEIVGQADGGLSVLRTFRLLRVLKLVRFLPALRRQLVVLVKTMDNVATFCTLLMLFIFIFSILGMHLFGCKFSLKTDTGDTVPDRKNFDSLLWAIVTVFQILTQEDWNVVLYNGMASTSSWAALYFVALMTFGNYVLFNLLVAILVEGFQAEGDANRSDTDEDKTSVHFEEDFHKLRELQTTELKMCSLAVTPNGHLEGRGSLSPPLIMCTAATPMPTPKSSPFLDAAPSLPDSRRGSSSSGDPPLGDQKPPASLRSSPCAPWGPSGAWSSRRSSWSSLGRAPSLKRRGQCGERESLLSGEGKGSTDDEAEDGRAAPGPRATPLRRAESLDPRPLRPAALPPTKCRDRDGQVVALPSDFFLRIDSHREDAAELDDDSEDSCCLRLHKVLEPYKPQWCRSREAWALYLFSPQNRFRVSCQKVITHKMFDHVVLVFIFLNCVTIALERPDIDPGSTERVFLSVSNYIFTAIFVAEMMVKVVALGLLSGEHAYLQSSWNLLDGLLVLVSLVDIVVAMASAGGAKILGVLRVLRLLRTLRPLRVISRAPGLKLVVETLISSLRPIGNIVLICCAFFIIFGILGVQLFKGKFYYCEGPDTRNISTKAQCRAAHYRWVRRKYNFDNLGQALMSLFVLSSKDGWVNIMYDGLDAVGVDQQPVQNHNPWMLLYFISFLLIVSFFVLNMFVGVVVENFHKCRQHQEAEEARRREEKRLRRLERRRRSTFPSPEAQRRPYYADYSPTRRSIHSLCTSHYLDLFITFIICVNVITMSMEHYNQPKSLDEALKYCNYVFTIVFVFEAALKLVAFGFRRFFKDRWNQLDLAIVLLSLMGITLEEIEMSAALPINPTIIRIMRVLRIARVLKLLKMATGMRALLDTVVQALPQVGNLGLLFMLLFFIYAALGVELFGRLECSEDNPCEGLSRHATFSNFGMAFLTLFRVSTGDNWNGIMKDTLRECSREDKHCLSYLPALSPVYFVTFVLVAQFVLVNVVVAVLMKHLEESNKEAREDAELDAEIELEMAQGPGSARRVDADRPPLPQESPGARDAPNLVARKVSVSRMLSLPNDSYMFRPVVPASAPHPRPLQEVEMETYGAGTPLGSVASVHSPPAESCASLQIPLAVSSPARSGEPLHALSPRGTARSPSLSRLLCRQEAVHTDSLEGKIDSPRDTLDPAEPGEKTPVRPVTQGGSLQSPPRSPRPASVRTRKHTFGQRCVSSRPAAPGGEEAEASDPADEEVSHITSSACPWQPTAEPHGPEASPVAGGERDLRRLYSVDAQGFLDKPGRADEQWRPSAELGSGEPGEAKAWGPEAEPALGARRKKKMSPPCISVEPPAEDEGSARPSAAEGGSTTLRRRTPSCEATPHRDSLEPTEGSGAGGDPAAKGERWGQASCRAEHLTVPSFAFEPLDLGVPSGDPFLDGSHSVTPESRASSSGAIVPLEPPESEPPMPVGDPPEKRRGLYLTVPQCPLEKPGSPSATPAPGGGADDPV
Experiment: Inhibition of human recombinant Cav3.2 alpha1 subunit expressed in HEK293T cells assessed as inhibition of calcium influx measured for 300 secs by FLIPR assay
// pIC50 lookup, one value per entry
pIC50 here is simply -log10 of the concentration when that concentration is written in mol/L.

CHEMICAL_SMILES | MEASURED_NUMBER
CN(C)CCCOc1ccc(CNc2ccc(Oc3ccc(F)cc3)cc2)cc1 | 3.64
c1ccc(Oc2cccc(NCc3ccc(OCCCn4ccnc4)cc3)c2)cc1 | 3.59
CN(C)CCCOc1ccc(S(=O)(=O)Nc2cccc(Oc3ccccc3)c2)cc1 | 3.85
Fc1ccc(Oc2ccc(NCc3ccc(OCCCn4ccnc4)cc3)cc2)cc1 | 3.47

Moving on to the next compound.
What value of measured pIC50 is listed for c1ccc(Oc2cccc(NCc3ccc(OCCCN4CCCCC4)cc3)c2)cc1 ?
3.70

Data origin: ChEMBL document CHEMBL5344473
